Biological target: T1, human UCN1 peptide, biotinylated (human, UniProt P55089 83-122, biotin at N- or C-terminus)
T1 construct: also called hUCN1 (NT Biotin); hUCN1 (CT Biotin)
T1 peptide (looked up): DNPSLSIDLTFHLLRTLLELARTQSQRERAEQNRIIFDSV
Assay: ELISA, hUCN1 (CT biotin)
EC50 (read off the curve) for assorted binders

| binder | EC50 (read off the curve) |
| --- | --- |
| PR302341-34 (antibody, human IgG1, kappa, V domains shown) VH: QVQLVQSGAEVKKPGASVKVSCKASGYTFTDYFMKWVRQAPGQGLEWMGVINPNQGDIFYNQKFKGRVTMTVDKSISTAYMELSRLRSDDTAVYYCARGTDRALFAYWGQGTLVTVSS VL: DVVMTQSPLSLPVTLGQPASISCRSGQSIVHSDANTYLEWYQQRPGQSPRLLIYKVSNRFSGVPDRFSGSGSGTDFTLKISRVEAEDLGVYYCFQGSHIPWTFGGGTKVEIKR | ~30 pM |
| PR302064 (antibody, human IgG1, kappa, V domains shown) VH: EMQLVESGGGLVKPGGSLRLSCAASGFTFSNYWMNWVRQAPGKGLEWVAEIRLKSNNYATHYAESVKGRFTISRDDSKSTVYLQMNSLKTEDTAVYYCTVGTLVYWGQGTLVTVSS VL: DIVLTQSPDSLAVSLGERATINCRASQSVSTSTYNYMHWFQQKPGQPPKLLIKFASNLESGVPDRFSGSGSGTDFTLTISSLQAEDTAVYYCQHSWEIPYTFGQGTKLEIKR | ~200 pM |
| PR302309-11 (antibody, human IgG1, kappa, V domains shown) VH: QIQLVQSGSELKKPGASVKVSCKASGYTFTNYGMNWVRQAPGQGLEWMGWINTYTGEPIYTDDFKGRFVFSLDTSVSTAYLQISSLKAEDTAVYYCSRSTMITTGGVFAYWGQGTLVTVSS VL: DIVMTQTPLSSPVTLGQPASISCRSSQTIVHSDGNTYLEWLQQRPGQPPRLLIYKVSNRFSGVPDRFSGSGAGTDFTLKISRVEAEDVGVYYCFQGSHVPWTFGGGTKVEIKR | ~400 pM |

API: the following record is the query input.
-- ask Requested read-out: EC50 (read off the curve). Entry: PR303394 (antibody, human IgG1, kappa, V domains shown, also called analog of CTRND05) VH: EVQLQQSGPELVKPGVSMKISCKASGYSFTDSTMNWVKQSHGKNLEWIGLIHPDNGGTIYNQKFKGKATLTVHKSSSTAYMELLSLTSEDSAVYYCANGFAYWGQGTLVTVSA VL: DVVMTQTPLSLPVSLGDQASISCRSSQSLLHSNGNTYLHWYLQKPGQSPELLIYKVSNRFSGVPDRFSGSGSGTDFTLKISRVEAEDLGVYFCSQSTHVPLTFGAGTKLELKR
-- reply ~20 pM
